Source listed as PubChem BioAssay (NCI).

# Tested on: HL-60(TB) leukemia
# test-name: NCI-60 one-dose screen, 48 h (100 = growth as untreated, 0 = no growth, -100 = all killed)
# experimental-setup: 10 µM unless noted
This is part of a sample that, as a whole, favours compounds with a hit. Of some 83,000 tested, about 20% had one in any assay.
Grouping key: growth. Bins: lower (below 10%), middle (10% to below 70%), upper (70% or more)

{"molecule": "Cc1nn(-c2nc3ccccc3[nH]2)c2c1C(c1ccc(O)cc1)CC(=O)N2 (stereo unspecified)", "group-label": "upper"}
{"molecule": "CCC(O)(C(c1ccccc1)c1ccccn1)C(c1ccccc1)c1ccccn1 (stereo unspecified)", "group-label": "upper"}
{"molecule": "COc1ccc(Nc2ncc(C(N)=O)c(NCCCNC(=O)C3CCC3)n2)cc1", "group-label": "middle"}
{"molecule": "CN(C)CCOc1ccccc1NC1=C(Cl)C(=O)C(Nc2ccccc2OCCN(C)C)=C(Cl)C1=O", "group-label": "lower"}
{"molecule": "O=S(=O)(CCN1CCOCC1)Nc1cc(-c2ccc3ncnc(Nc4ccc(F)c(Cl)c4)c3c2)cnc1Cl", "group-label": "middle"}
{"molecule": "O=C(NCCOCCOCCOCCNC(=O)c1cc2c(o1)C(=O)c1ccccc1C2=O)NC12CC3CC(CC(C3)C1)C2", "group-label": "lower"}
{"molecule": "S=C(c1ccc2c(c1)OCO2)N1CCN(c2cccc(Cl)c2)CC1", "group-label": "middle"}
{"molecule": "CCCCC(=O)OC1CCCCC1C (stereo unspecified)", "group-label": "upper"}
{"molecule": "COc1ccc(-c2[nH]c3ccccc3c2-c2ccc(OC)cc2)cc1", "group-label": "middle"}
{"molecule": "COc1cc2c(c(OC)c1OC)C(=O)/C(=C/c1cc(C)c(O)c(C)c1)S2", "group-label": "middle"}
{"molecule": "CNCCCOc1c(Br)cc(CCNC(=O)/C(Cc2cc(Br)c(OC)c(Br)c2)=N/O)cc1Br", "group-label": "lower"}
{"molecule": "CCCCCC(=O)Oc1ccc(/C(=C(\\C)c2ccccc2)c2ccc(OCCN(CC)CC)cc2)cc1", "group-label": "middle"}
{"molecule": "CCN(CC)CCCC(Nc1c2ccc(Cl)cc2nc2ccc(OC)cc12)c1ccncc1 (stereo unspecified)", "group-label": "upper"}
{"molecule": "CC[C@]12C=CCN3CC[C@@]4(c5ccc(OC)cc5N(C)[C@H]4[C@@](O)(C(=O)OC)[C@@H]1OC(=O)CCC[P+](c1ccccc1)(c1ccccc1)c1ccccc1)[C@@H]32", "group-label": "lower"}
